experiment: chemical genetic growth profiling, strain panel (AID 1159580);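 further: tested at 20 µM; growth read once vehicle control cultures reached saturation at 30 °C; 1 = growth at the plate median or of vehicle wells; lower values mean less growth of the strain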; settings: S. cerevisiae deletion strains, growth OD, locus YDL040C, strain nat1, hits give low values
Out of some 5,500 compounds screened, about 2,000 (36%) were called active. Roughly 18% stayed inconclusive and do not appear here. Some of the results follow.
Metric: normalized growth

* COc1ccccc1OCCNCC(O)COc1cccc2[nH]c3ccccc3c12 (configuration not stated) | 1.02
* CC(C)=CCC/C(C)=C/CC/C(C)=C/CC/C(C)=C/CC/C(C)=C/CC/C(C)=C/CC/C(C)=C/CC/C(C)=C/CC/C(C)=C/CO | 0.992
* NCCCC[C@H](N[C@@H](CCc1ccccc1)C(=O)O)C(=O)N1CCC[C@H]1C(=O)O | 0.998
* COc1cc(C(=O)NCc2ccc(OCCN(C)C)cc2)cc(OC)c1OC | 1.02
* CN1C(CC(=O)c2ccccc2)CCCC1CC(O)c1ccccc1 (configuration not stated) | 0.976
* CCN(CC)CCOc1ccc2c(c1)C(=O)c1cc(OCCN(CC)CC)ccc1-2 | 0.986
* C=CC(C)(O)CC/C=C(\C)CCC=C(C)C (configuration not stated) | 0.982
